Assay: Plasma pharmacokinetics of BI 187004 after single oral doses (LC–MS/MS)
Details: male, human, plasma, po, 40 mg, BI 187004 plasma concentrations, 40 mg single oral, planned time 0.5 h, gMean
PROPERTY NAME: concentration at 0.5 h (nM)
The answer is to be given in nM; state only the numeric part.

Query: Give its concentration at 0.5 h value. Item: `N#Cc1ccc2c(c1)[C@H]1CCCN(C(=O)c3ccc4[nH]cnc4c3)[C@H]1C2`
Reply: 1520

---

Assay: Plasma pharmacokinetics of BI 187004 after single oral doses (LC–MS/MS)
Settings: male, human, plasma, po, 160 mg, BI 187004 plasma concentrations, 160 mg single oral, planned time 24 h, gMean
PROPERTY NAME: concentration at 24 h (µM)
Report as a plain number; the unit µM is understood.

Query: What does the record list as concentration at 24 h for `N#Cc1ccc2c(c1)[C@H]1CCCN(C(=O)c3ccc4[nH]cnc4c3)[C@H]1C2` ?
Reply: 1.63

---

Test: Plasma pharmacokinetics of BI 187004 after single oral doses (LC–MS/MS)
Conditions: male, human, plasma, po, 2.5 mg, Plasma concentration gMean, 2.5 mg single oral; 2 h
PROPERTY NAME: concentration at 2 h (nM)
Dear colleague, please return just the value in nM, with no unit written.

Query: So what's the measured concentration at 2 h for this one? `N#Cc1ccc2c(c1)[C@H]1CCCN(C(=O)c3ccc4[nH]cnc4c3)[C@H]1C2`
Reply: 8.02

---

Assay: Plasma pharmacokinetics of BI 187004 after single oral doses (LC–MS/MS)
Conditions: male, human, plasma, po, 2.5 mg, Plasma concentration Median, 2.5 mg single oral; 2 h
PROPERTY NAME: concentration at 2 h (nM)
State just the number; it will be interpreted in nM.

Query: What value of concentration at 2 h has been recorded for this entry: N#Cc1ccc2c(c1)[C@H]1CCCN(C(=O)c3ccc4[nH]cnc4c3)[C@H]1C2 [BI 187004]
Reply: 9.41

---

Experiment: Plasma pharmacokinetics of BI 187004 after single oral doses (LC–MS/MS)
Conditions: male, human, plasma, po, 360 mg, BI 187004 plasma concentrations, 360 mg single oral, planned time 12 h, individual subjects
PROPERTY NAME: concentration at 12 h (µM)
Supply the numeric figure in µM, leaving out any unit text.

Query: Given the molecule `N#Cc1ccc2c(c1)[C@H]1CCCN(C(=O)c3ccc4[nH]cnc4c3)[C@H]1C2` , what is its reported concentration at 12 h?
Reply: 6.08

---

Assay: Plasma pharmacokinetics of BI 187004 after single oral doses (LC–MS/MS)
Conditions: male, human, plasma, po, 80 mg, BI 187004 plasma concentrations, 80 mg single oral, planned time 1 h, Min
PROPERTY NAME: concentration at 1 h (nM)
Provide only the numeric value, understood in nM.

Query: Need concentration at 1 h, item N#Cc1ccc2c(c1)[C@H]1CCCN(C(=O)c3ccc4[nH]cnc4c3)[C@H]1C2 [BI 187004]
Reply: 771

---

Test: Plasma pharmacokinetics of BI 187004 after single oral doses (LC–MS/MS)
Conditions: male, human, plasma, po, 240 mg, BI 187004 plasma concentrations, Mean, 240 mg single oral, planned time 10 h
PROPERTY NAME: concentration at 10 h

Query: Name the reported concentration at 10 h value associated with the compound `N#Cc1ccc2c(c1)[C@H]1CCCN(C(=O)c3ccc4[nH]cnc4c3)[C@H]1C2`
Reply: 3.45 µM
